targetOrTestSystem: T1, recombinant human GARP-proTGFβ1 complex (Homo sapiens, UniProt P01137)
T1 construct: made in house
T1 sequence (P01137 30-390): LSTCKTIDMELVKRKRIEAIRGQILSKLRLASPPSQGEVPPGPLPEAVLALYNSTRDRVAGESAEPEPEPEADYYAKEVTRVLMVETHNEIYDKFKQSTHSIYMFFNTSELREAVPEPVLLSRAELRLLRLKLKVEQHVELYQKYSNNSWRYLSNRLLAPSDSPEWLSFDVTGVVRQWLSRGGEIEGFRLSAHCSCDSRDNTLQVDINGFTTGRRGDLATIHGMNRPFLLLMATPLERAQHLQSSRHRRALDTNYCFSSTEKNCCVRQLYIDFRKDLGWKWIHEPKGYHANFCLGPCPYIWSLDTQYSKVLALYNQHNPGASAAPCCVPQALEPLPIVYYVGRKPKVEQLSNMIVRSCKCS
T1 sequence (Q14392 20-627 partner limits assumed): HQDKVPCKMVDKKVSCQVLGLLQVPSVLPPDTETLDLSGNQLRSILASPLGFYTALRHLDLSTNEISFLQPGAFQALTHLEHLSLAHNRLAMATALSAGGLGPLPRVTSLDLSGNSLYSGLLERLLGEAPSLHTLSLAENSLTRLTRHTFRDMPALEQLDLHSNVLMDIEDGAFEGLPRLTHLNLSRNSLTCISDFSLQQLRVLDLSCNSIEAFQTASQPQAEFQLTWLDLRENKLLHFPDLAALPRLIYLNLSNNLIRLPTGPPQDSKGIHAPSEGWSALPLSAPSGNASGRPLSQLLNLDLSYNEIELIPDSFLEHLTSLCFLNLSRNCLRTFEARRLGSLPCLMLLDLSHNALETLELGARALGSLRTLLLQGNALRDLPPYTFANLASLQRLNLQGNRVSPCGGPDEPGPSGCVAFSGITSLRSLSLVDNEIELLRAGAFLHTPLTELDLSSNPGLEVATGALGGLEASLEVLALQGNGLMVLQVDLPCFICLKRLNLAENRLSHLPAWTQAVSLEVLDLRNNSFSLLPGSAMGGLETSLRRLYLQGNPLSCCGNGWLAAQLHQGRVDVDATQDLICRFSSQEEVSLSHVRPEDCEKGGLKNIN
assayMethodText: Octet (Biolayer Interferometry) in vitro kinetic binding
testContext: in M
readoutLabel: (E) hGARP, Cell-associated proTGFb1 (KD)
Number only, please.

**Query** Item under review: Ab29: monoclonal antibody; VH SEQ ID NO: 137, VL SEQ ID NO: 15 (antibody, V domains shown) VH: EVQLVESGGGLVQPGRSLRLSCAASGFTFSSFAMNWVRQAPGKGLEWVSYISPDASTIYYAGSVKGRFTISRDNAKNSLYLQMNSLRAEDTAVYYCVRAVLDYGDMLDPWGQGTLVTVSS VL: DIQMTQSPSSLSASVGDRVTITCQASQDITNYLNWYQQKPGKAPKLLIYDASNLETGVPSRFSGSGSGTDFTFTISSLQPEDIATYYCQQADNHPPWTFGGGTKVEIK . Reported (E) hGARP, Cell-associated proTGFb1 (KD)?
**Result** 3.07E−10
